Test system: HL-60 human leukemia cells
Experiment: Cell growth inhibition (cell viability assay) on human leukemia cells HL-60
Type: cell-based
Conditions: HL-60 cells, 48 hr treatment
quantity-kind: inhibition at 10 µM (%)

* O=C(/C=C/c1cc(O)ccc1O)OCCCc1ccccc1 | 54.4
* O=C(/C=C/c1ccc(O)c(O)c1)CCCc1ccccc1 | 60.7
* O=C(/C=C/c1ccc(O)c(O)c1)OC/C=C/c1ccccc1 | 21.6
* O=C(/C=C/c1ccc(O)c(O)c1)OCCCCc1ccccc1 | 33

* * *

Tested on: KMM-1 human myeloma cells
Experiment: Cell growth inhibition (cell viability assay) on IMiD-resistant human myeloma cells KMM-1
Format: cell-based
Details: Homo sapiens, KMM-1 cells, 48 hr treatment
quantity-kind: inhibition at 10 µM (%)

* COc1cc(/C=C/C(=O)OCCc2ccccc2)ccc1O [MT49] | 6.5
* Cc1ccc(CCOC(=O)/C=C/c2ccc(O)c(O)c2)cc1 [MT25] | 21.6
* COc1cc(/C=C/C(=O)OCCCc2ccccc2)ccc1O [MT50] | 13.6
* COc1cc(/C=C/C(=O)OCCCc2ccccc2)cc(OC)c1O [HM7] | 26.6
* Nc1cccc2c1CN(C1CCC(=O)NC1=O)C2=O (stereo not shown) [Lenalidomide, lenalidomide, reference compound] | 7.5
* O=C(/C=C/c1ccc(O)c(O)c1)Oc1ccccc1 [GL9] | 26
* O=C(/C=C/c1ccc(O)c(O)c1)NCCCc1ccccc1 [LL28] | 15.8
* O=C(/C=C/c1cc(O)ccc1O)OCCCc1ccccc1 [As26] | 89.7
* O=C(/C=C/c1ccc(O)c(O)c1)OCC#Cc1ccccc1 [Molecule J91] | 31.7
* O=C(/C=C/c1ccc(O)c(O)c1)OCCc1ccccc1 [CAPE, reference compound] | 14.7
